- experiment_description: Kinetic solubility of compound in PBS at pH 7.4 incubated for 2 hrs in shaker by LC-MS/MS analysis
- Format: physicochemical
- recorded_conditions: read-out: Kinetic_solubility
Record form. Attribute: solubility kinetic at 2 h. Fill in for each entry.

Some solved cases for reference:
>  <query_smiles>
COc1cc(/C=C2\C(=O)N=C(N)N2C)cc(OC)c1OC.Cl

>  <solubility kinetic at 2 h>
≥ 20 µM

$$$$
>  <query_smiles>
COc1cc(/C=C2\C(=O)N=C(N)N2C)c(OC)cc1Br.Cl

>  <solubility kinetic at 2 h>
≥ 20 µM

$$$$
>  <query_smiles>
COc1cc(/C=C2\N=C(N)NC2=O)c(OC)cc1Br.Cl

>  <solubility kinetic at 2 h>
≥ 20 µM

$$$$

State the recorded solubility kinetic at 2 h for every item in the following list.
1. COc1cc(/C=C2\N=C(N)NC2=O)cc(OC)c1OC.Cl
2. COc1ccc(OC)c(/C=C2\C(=O)N=C(N)N2C)c1.Cl
3. COc1cc(/C=C2\C(=O)N(C)C(=N)N2C)cc(OC)c1OC.Cl
4. COc1ccc(OC)c(/C=C2\N=C(N)NC2=O)c1.Cl

1. ≥ 20 µM
2. ≥ 20 µM
3. ≥ 20 µM
4. ≥ 20 µM

###

- tgt: 5-hydroxytryptamine receptor 2A (Homo sapiens, UniProt P28223)
- Sequence (P28223 whole entry): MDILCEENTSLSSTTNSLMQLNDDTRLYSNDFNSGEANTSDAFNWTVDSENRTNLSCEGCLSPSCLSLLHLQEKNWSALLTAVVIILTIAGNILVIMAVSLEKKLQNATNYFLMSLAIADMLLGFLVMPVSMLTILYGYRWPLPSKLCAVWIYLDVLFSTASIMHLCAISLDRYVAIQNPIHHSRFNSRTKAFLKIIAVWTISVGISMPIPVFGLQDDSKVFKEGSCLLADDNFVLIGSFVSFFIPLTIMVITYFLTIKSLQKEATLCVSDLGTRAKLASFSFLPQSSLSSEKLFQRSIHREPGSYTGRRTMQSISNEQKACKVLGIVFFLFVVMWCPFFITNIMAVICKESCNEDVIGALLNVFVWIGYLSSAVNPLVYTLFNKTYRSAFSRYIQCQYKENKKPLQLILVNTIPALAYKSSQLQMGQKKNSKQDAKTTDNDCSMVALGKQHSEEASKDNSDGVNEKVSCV
measured_property: pKi
Answers are plain numbers, as −log10 of the molar value.

pKi measured on COc1ccc(OC)c(/C=C2\N=C(N)NC2=O)c1.Cl = 6.63

###

- tgt: 5-hydroxytryptamine receptor 2A (Homo sapiens, UniProt P28223)
- experiment_description: Antagonist activity at 5-HT2A receptor (unknown origin) assessed as inhibition of 5-HT stimulated IP1 production incubated for 1 hr by HTRF method
measured_property: IC50 (nM)
Numbers only, in nM.

>  <query_smiles>
COc1cc(/C=C2\N=C(N)NC2=O)c(OC)cc1Br.Cl

>  <tgt>
5-hydroxytryptamine receptor 2A (Homo sapiens, UniProt P28223)

>  <experimental_result>
58

$$$$

Here's the next entry for you.
The compound identified as COc1ccc(OC)c(/C=C2\N=C(N)NC2=O)c1.Cl registered its IC50 at 887
